# subject of test: T1, mouse serum albumin (mouse, UniProt P07724 25-608)
# T1 construct: mature; purified protein on CM5 chips for BIAcore; also called MSA; mouse SA
# assay: BIAcore SPR;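 also: purified dAbs run at 1 µM, 500 nM and 50 nM over human, cynomolgus, mouse and rat serum albumin in BIAcore binding measurements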
Kindly state koff for each of the entries shown.
One number for each entry, in s⁻¹.

binder	test result
DOM7h-14-18 (other, Vk dAb (AlbudAb)) VL: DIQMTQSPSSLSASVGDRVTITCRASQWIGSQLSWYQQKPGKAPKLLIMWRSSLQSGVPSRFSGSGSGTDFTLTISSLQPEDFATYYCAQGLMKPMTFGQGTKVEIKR	0.0924
DOM7h-14-19 (other, Vk dAb (AlbudAb)) VL: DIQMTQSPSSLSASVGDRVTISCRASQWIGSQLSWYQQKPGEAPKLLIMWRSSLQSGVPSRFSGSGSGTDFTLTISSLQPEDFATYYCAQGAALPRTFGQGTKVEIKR	0.0576

Quick request: koff for each listed item, please.
1. DOM7h-11-18 (other) VL: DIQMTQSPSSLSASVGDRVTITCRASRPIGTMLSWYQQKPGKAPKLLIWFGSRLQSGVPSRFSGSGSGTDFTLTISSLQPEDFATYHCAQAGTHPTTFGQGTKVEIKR
2. DOM7h-11-12 (other) VL: DIQMTQSPSSLSASVGDRVTITCRASRPIGTMLSWYQQKPGKAPKLLILFGSRLQSGVPSRFSGSGSGTDFTLTISSLQPEDFATYYCAQAGTHPTTFGQGTKVEIKR

Response:
1: 0.024; 2: 0.189

Here are 5 binders. What values of koff were reported for them?
1. DOM7h-11-19 (other) VL: DIQMTQSPSSLSASVGDRVTITCRASRPIGTMLSWYQQKPGKAPKLLILFGSRLQSGVPSRFSGSGSGTDFTLTISSLQPEDFATYYCAQTGTHPTTFGQGTKVEIKR
2. DOM7h-11 (other) VL: DIQMTQSPSSLSASVGDRVTITCRASRPIGTTLSWYQQKPGKAPKLLIWFGSRLQSGVPSRFSGSGSGTDFTLTISSLQPEDFATYYCAQAGTHPTTFGQGTKVEIKR
3. DOM7h-14-10 (other, Vk dAb (AlbudAb)) VL: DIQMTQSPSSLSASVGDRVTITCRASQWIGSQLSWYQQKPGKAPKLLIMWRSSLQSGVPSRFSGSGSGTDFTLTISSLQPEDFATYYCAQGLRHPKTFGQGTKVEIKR
4. DOM7h-11-15 (other) VL: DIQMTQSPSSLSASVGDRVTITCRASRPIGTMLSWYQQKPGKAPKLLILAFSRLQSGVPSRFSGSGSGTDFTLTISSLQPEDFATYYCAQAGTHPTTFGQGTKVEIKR
5. DOM7h-14 (other, Vk dAb (AlbudAb)) VL: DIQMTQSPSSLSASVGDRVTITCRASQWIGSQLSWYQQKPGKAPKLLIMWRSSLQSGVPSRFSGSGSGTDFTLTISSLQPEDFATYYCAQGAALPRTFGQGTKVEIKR

Response:
[0.037, 0.9, 0.0341, 0.0094, 0.0482]
